# Test system: Schistosoma mansoni schistosomula (LE)
# Procedure Summary: XTT viability relative to DMSO control; higher = more viable (less active)
# Experimental Context: 72 h; 10 µM
Here, each record is paired with measured XTT viability data.
Report the figure in % without appending any unit label.

CC(=O)Oc1ccccc1C(=O)Nc1ncc([N+](=O)[O-])s1    102

Query (molecule): N#Cc1ccc(-c2ccc(OCC(N)=O)cc2)cc1 ; field requested: XTT viability
73.9

// lookup XTT viability for CN(C)CCNC(=O)N1CCCN(c2ncnc3cc(-c4ccccc4)sc23)CC1
106

# lookup: XTT viability of CC(C)(C)c1ccc(N[C@@H]2CCCC[C@H]2NC(=O)c2ccco2)cc1
117

Returns the measured XTT viability for the input molecule. Input: CCn1ncc2c(NC3CCOCC3)c(CNC(=O)c3ccnn3C)c(C)nc21
92.5

So what does the record say about XTT viability for CC(C)(C)C(=O)N(CCCCCCN1C[C@H](O)[C@@H](O)[C@H](O)[C@H]1CO)C1CCCCCC1 ?
122

Requested field: XTT viability. Item: COc1ccc(CCN2CCC(NCc3cccc(N(C)C)c3)CC2)cc1
98.6

Any idea what XTT viability was measured for Cc1cc(Cl)ccc1NC(=O)CCc1ccc(S(=O)(=O)NCC(C)C)cc1 ?
107

Name the recorded XTT viability for CCn1cnc2c(Nc3cc(F)cc(F)c3)nc(C#N)nc21 .
97.7

Report XTT viability for CCCS(=O)(=O)N1CCC(CO)(Cc2ccccc2C(F)(F)F)CC1 please.
95.7

* * *

# Test system: Schistosoma mansoni schistosomula (Liberian)
# Procedure Summary: drug effect (1 - score/DMSO control score) (fraction); higher = more antischistosomal effect, active = 0.5 or more; extreme values may be limits of the assay
# Experimental Context: 72 h; 10 µM
Permitted responses: active, inactive

O[C@@H](c1cc(C(F)(F)F)nc2c(C(F)(F)F)cccc12)[C@H]1CCCCN1    active
COc1cc(C2=NCCN2)ccc1-c1cn(-c2cccc(C3=NCCN3)c2)nn1    inactive
CCc1ccccc1-n1c(C)cn2c3c(=O)n(C(C(=O)OC)C(C)C)c(=O)n(C)c3nc12 (configuration not stated)    active

How did this test come out for FC(F)(F)c1ccc(N(c2cccnc2)C2CCN(c3ccc(C(F)(F)F)cn3)CC2)cc1 ?
inactive

For CC(C)(C)OC(=O)N1CCN(c2nccc(-c3ccc(-c4ccc(Cl)cc4)s3)n2)CC1 , which call appears in the assay record?
inactive

Answer briefly: the call reported for c1cc(C2=NCCN2)cc(-c2cc(-c3ccc(C4=NCCN4)cc3)no2)c1 in this assay.
inactive

Dear colleague, could you share the recorded outcome for Cc1cc(OCC(=O)Nc2ccc(C(C)C)cc2)n(C)c(=O)c1C#N when you have a moment?
inactive

Dear colleague, could you share the recorded outcome for Cc1ccc(S(=O)(=O)N2CCN(C(=O)c3cc(-c4ccccc4)[nH]n3)CC2)cc1 when you have a moment?
active

Query: recorded result category for Cc1ccc2oc(-c3cc(NC(=O)Cc4ccccc4)ccc3Cl)nc2c1 in this test
inactive

Call for entry O=C(Nc1nc(-c2ccccn2)cs1)c1cncn1-c1ccccc1 :
inactive

I'd appreciate the recorded outcome for CCc1ccc(C(NCc2nc(N)nc(N(C)C)n2)C(C)C)cc1 (configuration not stated) from this test.
inactive

Status in this test for CC1(C)Cc2c(c(N3CCOCC3)nc3snc(Br)c23)CO1 ?
inactive

// outcome(item) with item = COc1ccc(-c2nn(C(C)C)c3ncnc(N)c23)cc1OC
inactive
